Record form. Attribute: Percent Effect. Fill in for each entry.
- TEST_SYSTEM: Arginase-2, mitochondrial (Homo sapiens)
- Sequence (whole entry): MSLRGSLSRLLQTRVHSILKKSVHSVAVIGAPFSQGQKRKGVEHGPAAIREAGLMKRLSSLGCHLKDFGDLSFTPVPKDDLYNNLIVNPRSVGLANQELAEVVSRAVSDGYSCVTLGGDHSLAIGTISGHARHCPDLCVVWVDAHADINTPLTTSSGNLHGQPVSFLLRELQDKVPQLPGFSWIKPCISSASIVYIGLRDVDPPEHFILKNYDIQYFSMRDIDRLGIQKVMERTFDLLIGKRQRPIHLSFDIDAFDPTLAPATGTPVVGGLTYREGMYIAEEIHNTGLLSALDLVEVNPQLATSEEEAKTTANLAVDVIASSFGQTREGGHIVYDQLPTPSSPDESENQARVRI
- ASSAY_NOTES: in vitro enzyme assay to detect the production of urea directly proportional to the activity of Arginase II
- Type: functional
- Parameters: scale not given: in the data most compounds retested in dose-response had high values
- CONDITION_NOTES: 33.3 µM
Answers are plain numbers, in %.

1) Cc1nc(C)n(CC2CCCN(CCc3ccccn3)C2)n1 (configuration not stated) = -1.07

I'm hoping you can list Percent Effect for every compound here, please.
1. CCN(CC(=O)NC(C)C)S(=O)(=O)N1CCCCCC1
2. c1cnnc(N2CCCC2CNc2ncnc3ccccc23)c1 (configuration not stated)
3. Cc1cc(CC(=O)N(CC2CN(C)CCO2)c2nccs2)no1 (configuration not stated)
4. CCc1csc(C2CCCN(C(=O)c3c[nH]c(C)n3)C2)n1 (configuration not stated)
5. C[C@@H]1CN(C(=O)c2ccc(C#N)nc2)C[C@@]1(O)C1CC1
6. O=C(NCCNCC1CNc2ccnn2C1)c1ccc(F)cc1 (configuration not stated)
7. CCC(=O)Nc1nnc(CCOc2cccc(OC)c2)s1

1. 3.23
2. 4.09
3. 2.03
4. -1.78
5. -1.91
6. 0.476
7. -4.4
